Test system: MS2 coat protein
Experiment: apparent KD of MS2 coat protein; designed switch direction (-1 OFF switch, 1 ON switch): -1; higher = weaker reporter binding
Details: Eterna round: R95; input ligand: FMN 200 uM
Record form. Attribute: apparent KD of MS2 coat protein. Fill in for each entry.
Kindly provide the numeric value in µM only, without the unit symbol.

Give apparent KD of MS2 coat protein; test system MS2 coat protein; sequence UAAUAACAAGCAGGAUCCUACAUGAGGAUCACCCAUGUGCUCGUCUUAUAAAGUACUAUCACGAAAGUGAUAGUACU [Mat - Sensor v3 - turn-off var 1 - Eli Mod - D73] (puzzle: Sensor v3, turn-off variant 1)
0.208

Consider the sequence AAAUUAAGUGUGAGGAUAUGCUGGUCCAUAGAUCAGCAGAAGGCACAUGAGGAUCACCCAUGUAAUAUAUUUAA [Mat - Exclusion 4 - JL Mod - D51] (puzzle: Brourd's mod of Exclusion 4) tested on MS2 coat protein; state its apparent KD of MS2 coat protein.
0.134
